These measurements were taken from patent US20090048258A1.

A collection of molecules and their measured IC50
Biological target: Human DGAT1 (Homo sapiens, UniProt O75907)
Construct: my translation of the primer: M-G-DYKDDDD-GDRGSSRRR) (N); made in house; host or cells: Sf9 insect cells (recombinant baculovirus BAC-DGAT1, pFASTBAC1); microsome fraction
Sequence (O75907 whole entry): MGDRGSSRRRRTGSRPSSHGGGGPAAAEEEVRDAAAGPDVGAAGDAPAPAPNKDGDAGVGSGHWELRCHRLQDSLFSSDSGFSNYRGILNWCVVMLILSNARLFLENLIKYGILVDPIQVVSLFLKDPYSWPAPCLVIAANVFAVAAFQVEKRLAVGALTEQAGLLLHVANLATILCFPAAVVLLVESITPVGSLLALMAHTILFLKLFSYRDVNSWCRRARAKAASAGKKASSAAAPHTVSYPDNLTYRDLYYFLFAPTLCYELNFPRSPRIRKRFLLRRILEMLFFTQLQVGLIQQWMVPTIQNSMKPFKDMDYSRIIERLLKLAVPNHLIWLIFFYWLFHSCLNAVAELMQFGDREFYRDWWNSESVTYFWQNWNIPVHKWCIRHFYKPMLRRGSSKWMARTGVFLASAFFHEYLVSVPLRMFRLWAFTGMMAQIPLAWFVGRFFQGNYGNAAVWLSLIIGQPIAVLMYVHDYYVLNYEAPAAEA
Experiment: DGAT inhibitory activity: [14C]-triglyceride synthesis by DGAT1 high expression Sf9 microsome
Format: biochemical
Settings: Table 2, 25 μM dioleoylglycerol, 25 μM [14C]-Oleoyl-CoA, 32° C., 15 min, read-out: DGAT inhibitory activity (according to IC50)
Experimental: The primer base sequence is shown below. The PCR reaction was conducted using a KOD-plus kit (TOYOBO). […] As a DGAT1 reaction buffer, a solution having a composition of 100 mM Tris-HCl (pH 7.5), 250 mM sucrose, 150 mM MgCl2, 0.01% bovine serum albumin (BSA) was used. […] The inhibitory rate was calculated by the following formula: […]

>  <molecule>
O=C(CCC(=O)c1ccc2c(c1)OCCO2)Nc1nc(-c2ccccc2)c(Cc2ccccc2)s1 [Example 67]

>  <IC50>
50 to 500 nM

$$$$
>  <molecule>
CCOc1ccc(C(=O)CCC(=O)Nc2cc(-c3ccoc3)cc(-c3ccccc3)n2)cc1OCC [Example 117]

>  <IC50>
50 to 500 nM

$$$$
>  <molecule>
CCOc1ccc(C(=O)CCC(=O)Nc2cc(-c3ccc(OCCNC(=O)OC(C)(C)C)cc3)c3ccccc3n2)cc1OCC [Example 92]

>  <IC50>
50 to 500 nM

$$$$
>  <molecule>
Cn1cc(-c2cc(NC(=O)CCC(=O)c3ccc4c(c3)CCO4)nc(-c3ccccc3)c2)cn1 [Example 153]

>  <IC50>
500 to 10000 nM

$$$$
>  <molecule>
N#Cc1cccc(-c2cc(NC(=O)CCC(=O)c3ccc4c(c3)CCO4)nc(-c3ccccc3)c2)c1 [Example 163]

>  <IC50>
50 to 500 nM

$$$$
>  <molecule>
CCOc1ccc(C(=O)CCC(=O)Nc2cc(-c3ccc(CCC(=O)O)cc3)cc(-c3ccccc3)n2)cc1OCC [Example 125]

>  <IC50>
500 to 10000 nM

$$$$
>  <molecule>
CCOc1ccc(C(=O)CCC(=O)Nc2cc(-c3cccc(OC)c3)c3ccccc3n2)cc1OCC [Example 80]

>  <IC50>
10 to 50 nM

$$$$
>  <molecule>
O=C(O)CCc1ccc(-c2cc(NC(=O)CCC(=O)c3ccc4c(c3)CCO4)nc(-c3ccccc3)c2)cc1 [Example 157]

>  <IC50>
500 to 10000 nM

$$$$
>  <molecule>
COc1cc(-c2cc(NC(=O)CCC(=O)c3ccc4c(c3)CCO4)nc(-c3ccccc3)c2)ccc1O [Example 181]

>  <IC50>
10 to 50 nM

$$$$
>  <molecule>
O=C(CCC(=O)c1ccc2c(c1)CCO2)Nc1cc(-c2cccnc2)cc(-c2ccccc2)n1 [Example 114]

>  <IC50>
50 to 500 nM

$$$$
>  <molecule>
CCOc1ccc(C(=O)CCC(=O)Nc2cc(-c3cnn(C)c3)cc(-c3ccccc3)n2)cc1OCC [Example 119]

>  <IC50>
50 to 500 nM

$$$$
>  <molecule>
COc1ccc(C(=O)CCC(=O)Nc2nc(-c3ccccc3)c(Cc3ccccc3)s2)cc1OC [Example 71]

>  <IC50>
≤ 10 nM

$$$$
>  <molecule>
CCOc1ccc(C(=O)CCC(=O)Nc2cc(-c3cccc(CO)c3)cc(-c3ccccc3)n2)cc1OCC [Example 136]

>  <IC50>
50 to 500 nM

$$$$
>  <molecule>
O=C(CCC(=O)c1ccc2c(c1)CCO2)Nc1cc(-c2ccc(N3CCOCC3)cc2)cc(-c2ccccc2)n1 [Example 160]

>  <IC50>
500 to 10000 nM

$$$$
>  <molecule>
O=C(CCC(=O)c1ccc2c(c1)CCO2)Nc1cc(-c2ccccc2)cc(-c2ccccc2)n1 [Example 104]

>  <IC50>
50 to 500 nM

$$$$

* * *

A collection of molecules and their measured IC50
Molecular target: Human DGAT1 (Homo sapiens)
Construct: my translation of the primer: M-G-DYKDDDD-GDRGSSRRR) (N); made in house; host or cells: Sf9 insect cells (recombinant baculovirus BAC-DGAT1, pFASTBAC1); microsome fraction
Assay: DGAT inhibitory activity: [14C]-triglyceride synthesis by DGAT1 high expression Sf9 microsome
Assay type: biochemical
Settings: Table 2, 25 μM dioleoylglycerol, 25 μM [14C]-Oleoyl-CoA, 32° C., 15 min, read-out: DGAT inhibitory activity (according to IC50)

>  <molecule>
CCOc1ccc(C(=O)CCC(=O)Nc2cc(C(C)(C)C)nn2-c2ccc(C(C)(C)C)cc2)cc1OCC [Example 100]

>  <testedSystem>
Human DGAT1 (Homo sapiens)

>  <IC50>
500 to 10000 nM

$$$$
>  <molecule>
CCOc1ccc(C(=O)CCC(=O)Nc2cc(-c3ccccc3)c3ccc(/C=C/C(=O)OC(C)(C)C)cc3n2)cc1OCC [Example 82]

>  <testedSystem>
Human DGAT1 (Homo sapiens)

>  <IC50>
50 to 500 nM

$$$$
>  <molecule>
CCOc1ccc(C(=O)CCC(=O)Nc2cc3ccccc3c(-c3ccccc3)n2)cc1OCC [Example 84]

>  <testedSystem>
Human DGAT1 (Homo sapiens)

>  <IC50>
500 to 10000 nM

$$$$
>  <molecule>
CCOc1ccc(C(=O)CCC(=O)Nc2cc3ccccc3c(N3CCCCC3)n2)cc1OCC [Example 85]

>  <testedSystem>
Human DGAT1 (Homo sapiens)

>  <IC50>
500 to 10000 nM

$$$$
>  <molecule>
CCOc1ccc(C(=O)CCC(=O)Nc2cc(-c3ccncc3)c3ccccc3n2)cc1OCC [Example 91]

>  <testedSystem>
Human DGAT1 (Homo sapiens)

>  <IC50>
50 to 500 nM

$$$$
>  <molecule>
CCOc1ccc(C(=O)CCC(=O)Nc2cc(-c3ccc(OCCCN(C)C)cc3)c3ccccc3n2)cc1OCC [Example 93]

>  <testedSystem>
Human DGAT1 (Homo sapiens)

>  <IC50>
50 to 500 nM

$$$$
>  <molecule>
CCOc1ccc(C(=O)CCC(=O)Nc2cc(-c3ccccc3C#N)cc(-c3ccccc3)n2)cc1OCC [Example 144]

>  <testedSystem>
Human DGAT1 (Homo sapiens)

>  <IC50>
≤ 10 nM

$$$$
>  <molecule>
CCOc1ccc(C(=O)CCC(=O)Nc2cc(-c3cccc(C#N)c3)cc(-c3ccccc3)n2)cc1OCC [Example 132]

>  <testedSystem>
Human DGAT1 (Homo sapiens)

>  <IC50>
50 to 500 nM

$$$$
>  <molecule>
O=C(CCC(=O)c1ccc2c(c1)CCO2)Nc1cc(-c2ccc(CN3CCOCC3)cc2)cc(-c2ccccc2)n1 [Example 161]

>  <testedSystem>
Human DGAT1 (Homo sapiens)

>  <IC50>
500 to 10000 nM

$$$$
>  <molecule>
COC(=O)c1cccc(-c2cc(NC(=O)CCC(=O)c3ccc4c(c3)CCO4)nc(-c3ccccc3)c2)c1 [Example 170]

>  <testedSystem>
Human DGAT1 (Homo sapiens)

>  <IC50>
500 to 10000 nM

$$$$
>  <molecule>
COc1ccccc1-c1cc(NC(=O)CCC(=O)c2ccc3c(c2)CCO3)nc(-c2ccccc2)c1 [Example 178]

>  <testedSystem>
Human DGAT1 (Homo sapiens)

>  <IC50>
10 to 50 nM

$$$$
>  <molecule>
CCOc1ccc(C(=O)CCC(=O)Nc2cc(-c3ccc(C(=O)OC)cc3)cc(-c3ccccc3)n2)cc1OCC [Example 112]

>  <testedSystem>
Human DGAT1 (Homo sapiens)

>  <IC50>
500 to 10000 nM

$$$$
>  <molecule>
O=C(CCC(=O)c1ccc2c(c1)CCO2)Nc1cc(-c2ccc(CO)cc2)cc(-c2ccccc2)n1 [Example 156]

>  <testedSystem>
Human DGAT1 (Homo sapiens)

>  <IC50>
50 to 500 nM

$$$$
>  <molecule>
CCCCCC/C=C/c1cc(NC(=O)CCC(=O)c2ccc3c(c2)CCO3)nc(-c2ccccc2)c1 [Example 184]

>  <testedSystem>
Human DGAT1 (Homo sapiens)

>  <IC50>
500 to 10000 nM

$$$$
>  <molecule>
O=C(CCC(=O)c1ccc2c(c1)CCO2)Nc1cc(-c2cccc(CCCO)c2)cc(-c2ccccc2)n1 [Example 168]

>  <testedSystem>
Human DGAT1 (Homo sapiens)

>  <IC50>
50 to 500 nM

$$$$

* * *

A collection of compounds and their measured pIC50
Target: Human DGAT1 (Homo sapiens)
Construct: my translation of the primer: M-G-DYKDDDD-GDRGSSRRR) (N); made in house; host or cells: Sf9 insect cells (recombinant baculovirus BAC-DGAT1, pFASTBAC1); microsome fraction
Experiment: DGAT inhibitory activity: [14C]-triglyceride synthesis by DGAT1 high expression Sf9 microsome
Format: biochemical
Conditions: Table 1, 25 μM dioleoylglycerol, 25 μM [14C]-Oleoyl-CoA, 32° C., 15 min, read-out: DGAT inhibitory activity (according to IC50)
Procedure: The primer base sequence is shown below. The PCR reaction was conducted using a KOD-plus kit (TOYOBO). […] As a DGAT1 reaction buffer, a solution having a composition of 100 mM Tris-HCl (pH 7.5), 250 mM sucrose, 150 mM MgCl2, 0.01% bovine serum albumin (BSA) was used. […] The inhibitory rate was calculated by the following formula: […]
pIC50: −log10 of the molar value.
measurementLabel: pIC50

>  <smi>
CCOc1ccc(C(=O)CCC(=O)Nc2cc(-c3ccc(OCOC)cc3)c3ccccc3n2)cc1OCC

>  <observedMeasurement>
6.30 to 7.30

$$$$
>  <smi>
CCOc1ccc(C(=O)CCC(=O)Nc2cc(-c3ccccc3)nc(-c3ccccc3)c2)cc1OCC

>  <observedMeasurement>
5.00 to 6.30

$$$$
>  <smi>
COCOc1ccc(C(=O)CCC(=O)Nc2nc(-c3ccccc3)c(Cc3ccccc3)s2)cc1

>  <observedMeasurement>
7.30 to 8.00

$$$$
>  <smi>
CCOc1cccc(C(=O)CCC(=O)Nc2nc(-c3ccccc3)c(Cc3ccccc3)s2)c1

>  <observedMeasurement>
≥ 8.00

$$$$
>  <smi>
CCOC(=O)/C=C/c1ccc(Cc2sc(NC(=O)CCC(=O)c3ccc(OCC)c(OCC)c3)cc2-c2ccccc2)cc1

>  <observedMeasurement>
6.30 to 7.30

$$$$
>  <smi>
CCOC(=O)c1sc(NC(=O)CCC(=O)c2ccc(OCC)c(OCC)c2)cc1-c1ccccc1

>  <observedMeasurement>
6.30 to 7.30

$$$$
>  <smi>
CCOc1ccc(C(=O)CCC(=O)Nc2cc(-c3ccccc3)c(Cc3ccc(Br)cc3)s2)cc1OCC

>  <observedMeasurement>
7.30 to 8.00

$$$$
>  <smi>
CCOc1ccc(C(=O)CCC(=O)Nc2cc(-c3ccccc3)sc2-c2ccccc2)cc1

>  <observedMeasurement>
5.00 to 6.30

$$$$
